Catalogue of cytotoxicity at 70.5 h readings, one per entry.
test: Human HepG2 cell viability assay in 384 well format; format: toxicity, cell-based; set-up: dose 125 nL, time 70.5 hour; concentration not given beside the values; conditions: HepG2 cells, read-out: Inhibition
Write the value in % as a bare number.

Some entries whose results are on file:
>>> obs_value("Cn1ccc2c(C(=O)NCCCS(C)(=O)=O)cccc21")
5.4
>>> obs_value("Cc1cc(C)n(C2CCCN(C(=O)c3ccn(C)c(=O)c3)C2)n1 (stereo unspecified)")
-9.18
>>> obs_value("Cn1cc(N2CCC3(CCN(S(=O)(=O)C4CC4)C3)C2=O)cn1 (stereo unspecified)")
4.38
>>> obs_value("CNc1nc(N2CCN(C3CCCCC3)C(CCO)C2)nc2c1CCC2 (stereo unspecified)")
-3.63
>>> obs_value("CC(C)n1cc(C(=O)N2CCN(c3cccc(C(F)(F)F)c3)CC2)cn1")
-5.28

Q: Dear colleague, I am looking for the recorded cytotoxicity at 70.5 h of the following compound: Cc1cnn(CC2CCCN2C(=O)c2cc3ccccc3[nH]c2=O)c1 (stereo unspecified)
Ans: 8.93

* * *

Each record here notes measured cytotoxicity at 70.5 h.
test: Human HepG2 cell viability assay in 384 well format; format: toxicity, cell-based; design: dose 125 nL, time 70.5 hour; concentration not given beside the values; conditions: HepG2 cells, read-out: Inhibition
Report as a plain number; the unit % is understood.

Recorded results for 3 molecules are shown here.
>>> obs_value("Cc1cc(C)cc(S(=O)(=O)NCC2CNCCOC2)c1 (stereo unspecified)")
-1.55
>>> obs_value("Cc1nc(-c2ccc(S(=O)(=O)N3CCSCC3)cc2)co1")
-5.93
>>> obs_value("CC(NC(=O)N1CCC(CO)CC1)c1csc2ccccc12 (stereo unspecified)")
-1.97

Q: # cytotoxicity at 70.5 h lookup, item "N#Cc1ccc(CN(CC(N)=O)C2CCCC2)cc1"
Ans: -9.26

Q: Would you mind doing "Cc1cc(CN(C)C(=O)c2ccnc(N(C)C)c2)no1" as well?
Ans: -7.52

Q: What about this molecule? O=C(c1cccc(Cl)c1)N1CCCC2(CCCNC2)C1 (stereo unspecified)
Ans: -1.15

* * *

test: Human HepG2 cell viability assay in 384 well format; type: toxicity, cell-based; parameters: dose 125 nL, time 70.5 hour; concentration not given beside the values; conditions: HepG2 cells, read-out: Inhibition
measured_attribute: cytotoxicity at 70.5 h (%)
Report as a plain number; the unit % is understood.

// solved cases for cytotoxicity at 70.5 h follow
>>> obs_value("CC(C)C(=O)NCC(=O)N(C)C1CCCN(CCc2ccccc2)C1 (stereo unspecified)")
-5.89
>>> obs_value("COc1ccccc1CN(Cc1cccs1)S(=O)(=O)N(C)C(C)C")
-2.73
>>> obs_value("CCn1nc(C)c(CNC(=O)NCC(C)(O)c2ccccc2)c1C (stereo unspecified)")
-3.1
>>> obs_value("Cc1cccc(Nc2noc3c2CN(C(=O)c2ccn(C)n2)CC3)c1C")
3.73
>>> obs_value("Cc1ccccc1CS(=O)(=O)CC(=O)N(C)Cc1ccccc1")
-9.59

Q: So what's the measured cytotoxicity at 70.5 h for this one? COCCCN1CCCC2(CCN(S(=O)(=O)c3cccnc3)C2)C1=O (stereo unspecified)
Ans: 9.1

Q: # repeat for COCCC(=O)N1CCC2(COCc3cnc(NCC4CC4)nc32)C1 (stereo unspecified)
Ans: 1.86

Q: # iterate: c1cc(CN2CCc3c(nnn3CC3CC3)C2COCC2CC2)co1 (stereo unspecified)
Ans: -14

Q: Continue with "CCc1nc(CN2CC[C@@](O)(CCOC)[C@H](C)C2)cs1"
Ans: 17.7

Q: Queued: O=C1NCCN(CC2CCCCC2)C1CC(=O)N1CCc2n[nH]cc2C1 (stereo unspecified)
Ans: -1.96

Q: // query: "CC(=O)N1CCN([C@@H]2CN(C(=O)Cc3ccccc3C)C[C@H]2O)CC1"
Ans: -2.44

Q: One more molecule: CC(C)CC(c1nc(-c2cnn(C)c2)no1)N1CCCCC1=O (stereo unspecified)
Ans: -3.04

Q: // same read-out, input: Cc1noc(C2CCCN(C(=O)CCCNc3ncccn3)C2)n1 (stereo unspecified)
Ans: 3.05

Q: What about this molecule? Cc1n[nH]c(C2CN(C(=O)c3cc(Cl)c[nH]3)CCO2)n1 (stereo unspecified)
Ans: -3.9

Q: What do you get for CC(Nc1ccc(C#N)cc1F)c1cccc(S(N)(=O)=O)c1 (stereo unspecified) ?
Ans: 16.2

Q: Continue with "Cc1ccccc1-c1noc(CN2CCC(N3CCNC3=O)CC2)n1"
Ans: 40.4

Q: And what about the molecule "CCc1nncn1CCNC(=O)N1CCN(Cc2ccccc2)CC1" ?
Ans: 3.82

Q: Query O=C(c1cccnc1)N1CCCC2(COCCN(c3ccccc3)C2)C1 (stereo unspecified) next
Ans: -16

Q: Next up: "C1CCC(c2nc3c(c(N4CC(N5CCOCC5)C4)n2)CCNCC3)C1"
Ans: -8.17

Q: Next molecule: "O=c1c2cn[nH]c2nc(SCCN2CCOCC2)n1-c1ccccc1"
Ans: -7.75

Q: Request: Cc1n[nH]c2c1C(c1cccnc1)SCC(=O)N2 (stereo unspecified)
Ans: -13.5

Q: Subsequent entry: COCCOCC(=O)N1CCCC(c2ncc[nH]2)C1 (stereo unspecified)
Ans: -16.6

Q: // next record "Cc1ccc(C(=O)O)cc1S(=O)(=O)N(C)c1cccc(C#N)c1"
Ans: -7.91

Q: Same lookup for "CN1CCC(c2cncc(-c3cccc(Cl)c3)n2)CC1" , please.
Ans: -2.71

Taken from ChEMBL document CHEMBL3507680.
